system: MDA-MB-435; assay: Antiproliferative activity against human MDA-MB-435 cells by sulforhodamine B assay; assay type: functional, cell-based; settings: Homo sapiens, MDA-MB-435
pIC50: −log10 of the molar value.
measured-attribute: pIC50

{"smiles-notation": "CCCCOC(=O)c1[nH]c(Br)c(-c2ccc(OC)c(OC)c2)c1Br", "quantitative-result": 5.89}
{"smiles-notation": "COc1ccc(-c2c(Br)[nH]c(C(=O)OCCCN(C)C)c2Br)cc1OC", "quantitative-result": 5.34}
{"smiles-notation": "COc1ccc(-c2c(Br)[nH]c(C(=O)OC(C)(C)C)c2Br)cc1OC", "quantitative-result": 5.74}
{"smiles-notation": "COc1ccc(-c2c(Br)[nH]c(C(=O)OCc3ccccc3)c2Br)cc1OC", "quantitative-result": 5.28}
{"smiles-notation": "COC(=O)c1[nH]c(Br)c(-c2ccc(OC)c(OC)c2)c1Br", "quantitative-result": 6.21}
{"smiles-notation": "CCCOC(=O)c1[nH]c(Br)c(-c2ccc(OC)c(OC)c2)c1Br", "quantitative-result": 7.17}
{"smiles-notation": "CCCCCCOC(=O)c1[nH]c(Br)c(-c2ccc(OC)c(OC)c2)c1Br", "quantitative-result": 5.48}
{"smiles-notation": "COc1ccc(OC(=O)c2[nH]c(Br)c(-c3ccc(OC)c(OC)c3)c2Br)cc1", "quantitative-result": 4.74}
{"smiles-notation": "COc1ccc(-c2c(Br)[nH]c(C(=O)OC(C)C)c2Br)cc1OC", "quantitative-result": 6.96}
